Please respond with reported Alpha max for every item in the list.
- study target: ATP-dependent translocase ABCB1 (Homo sapiens)
- protocol description: Reversal of P-gp-mediated multidrug resistance in doxorubicin-resistant human K562 cells assessed as increase in nuclear pirarubicin concentration
- Format: cell-based

// known answers, use as guide
[[record]]
structure = "COc1cc(/C=C/C(=O)OCCCN(C)CCN(C)CCCOC(=O)/C=C/c2cc(OC)c(OC)c(OC)c2)cc(OC)c1OC"
quantity = "Alpha max"
reported = 0.8

[[record]]
structure = "O=C(OCCCN1CCN(CCCOC(=O)c2c3ccccc3cc3ccccc23)CC1)c1c2ccccc2cc2ccccc12"
quantity = "Alpha max"
reported = 0.5

[[record]]
structure = "COc1cc(/C=C/C(=O)OCCN(C)CCOC(=O)c2cc(OC)c(OC)c(OC)c2)cc(OC)c1OC"
quantity = "Alpha max"
reported = 0.86


Look at this molecule and give its reported Alpha max. COc1cc(/C=C/C(=O)OCCCN2CCN(CCCOC(=O)c3c4ccccc4cc4ccccc34)CC2)cc(OC)c1OC
0.9

----------
- study target: ATP-dependent translocase ABCB1 (Homo sapiens, UniProt P08183)
- Sequence (P08183 whole entry): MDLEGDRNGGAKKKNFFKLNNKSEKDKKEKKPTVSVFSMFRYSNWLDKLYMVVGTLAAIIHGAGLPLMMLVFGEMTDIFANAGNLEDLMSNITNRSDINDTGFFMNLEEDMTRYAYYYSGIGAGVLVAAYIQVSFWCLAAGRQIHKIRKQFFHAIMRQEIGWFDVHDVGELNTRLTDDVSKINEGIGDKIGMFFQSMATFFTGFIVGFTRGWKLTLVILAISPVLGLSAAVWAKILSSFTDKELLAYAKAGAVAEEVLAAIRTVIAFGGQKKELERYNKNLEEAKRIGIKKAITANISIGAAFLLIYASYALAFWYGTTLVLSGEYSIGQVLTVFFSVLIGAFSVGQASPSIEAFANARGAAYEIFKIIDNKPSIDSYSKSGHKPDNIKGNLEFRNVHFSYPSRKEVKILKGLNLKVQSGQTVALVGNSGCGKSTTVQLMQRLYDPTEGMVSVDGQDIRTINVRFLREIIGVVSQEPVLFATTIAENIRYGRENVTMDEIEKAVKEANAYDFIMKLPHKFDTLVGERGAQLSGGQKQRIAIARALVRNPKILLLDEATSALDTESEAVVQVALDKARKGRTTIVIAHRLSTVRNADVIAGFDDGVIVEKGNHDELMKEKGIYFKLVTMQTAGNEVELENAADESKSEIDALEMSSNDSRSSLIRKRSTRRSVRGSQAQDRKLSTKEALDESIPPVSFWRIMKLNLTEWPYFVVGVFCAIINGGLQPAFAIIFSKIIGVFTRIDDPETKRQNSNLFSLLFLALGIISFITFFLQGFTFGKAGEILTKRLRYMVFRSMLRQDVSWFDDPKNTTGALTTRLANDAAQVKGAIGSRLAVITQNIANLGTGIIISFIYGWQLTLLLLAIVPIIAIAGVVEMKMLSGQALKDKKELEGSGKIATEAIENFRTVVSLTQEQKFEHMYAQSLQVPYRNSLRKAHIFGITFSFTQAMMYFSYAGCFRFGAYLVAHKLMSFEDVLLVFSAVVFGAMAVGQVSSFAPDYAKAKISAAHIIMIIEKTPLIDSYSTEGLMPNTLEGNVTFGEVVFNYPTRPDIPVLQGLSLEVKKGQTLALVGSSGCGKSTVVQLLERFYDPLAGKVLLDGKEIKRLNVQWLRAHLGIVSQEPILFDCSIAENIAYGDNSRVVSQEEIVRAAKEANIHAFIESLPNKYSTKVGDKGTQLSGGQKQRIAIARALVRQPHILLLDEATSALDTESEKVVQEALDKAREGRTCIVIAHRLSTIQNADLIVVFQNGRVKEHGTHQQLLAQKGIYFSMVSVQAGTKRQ
- protocol description: Reversal of P-gp-mediated multidrug resistance in doxorubicin-resistant human K562 cells assessed as increase in nuclear pirarubicin concentration
- Type: cell-based
quantity: Alpha max

[[record]]
compound = "COc1cc(/C=C/C(=O)OCCCNCCCOC(=O)c2c3ccccc3cc3ccccc23)cc(OC)c1OC"
quantity = "Alpha max"
reported = 0.74

[[record]]
compound = "COc1cc(/C=C/C(=O)OCCCN(C)CCCOC(=O)c2c3ccccc3cc3ccccc23)cc(OC)c1OC"
quantity = "Alpha max"
reported = 0.78

[[record]]
compound = "COc1cc(/C=C/C(=O)OCCOCCNCCOCCOC(=O)c2cc(OC)c(OC)c(OC)c2)cc(OC)c1OC"
quantity = "Alpha max"
reported = 1


Would you mind giving Alpha max for every compound in the list below?
1. COc1cc(/C=C/C(=O)OCCCCCCN(C)CCCCCCOC(=O)c2c3ccccc3cc3ccccc23)cc(OC)c1OC
2. COc1cc(/C=C/C(=O)OCCCCCCN(C)CCCCCCOC(=O)c2cc(OC)c(OC)c(OC)c2)cc(OC)c1OC
3. COc1cc(/C=C/C(=O)OCCCN(C)CCCOC(=O)c2cc(OC)c(OC)c(OC)c2)cc(OC)c1OC
4. COc1cc(/C=C/C(=O)OCCN(C)CCOC(=O)c2ccc(OC)c(OC)c2OC)cc(OC)c1OC
5. COc1cc(/C=C/C(=O)OCCN(C)CCOC(=O)c2ccccc2)cc(OC)c1OC
6. COc1cc(/C=C/C(=O)OCCCCCCCN(C)CCCCCCCOC(=O)c2cc(OC)c(OC)c(OC)c2)cc(OC)c1OC
7. COc1ccc(C(C#N)(CCC(=O)OCCCNCCCOC(=O)c2c3ccccc3cc3ccccc23)C(C)C)cc1OC (stereo not drawn)
8. COc1ccc(C(C#N)(CCC(=O)OCCCN(C)CCN(C)CCCOC(=O)c2c3ccccc3cc3ccccc23)C(C)C)cc1OC (stereo not drawn)

0.68
0.6
0.9
0.8
0.86
0.55
0.9
0.74

Would you mind giving Alpha max for every compound in the list below?
1. COc1cc(/C=C/C(=O)OCCCN(C)CCN(C)CCCOC(=O)c2c3ccccc3cc3ccccc23)cc(OC)c1OC
2. COc1cc(/C=C/C(=O)OCCCN(C)CCN(C)CCCOC(=O)C2c3ccccc3-c3ccccc32)cc(OC)c1OC

[0.7, 0.64]

Data provenance is ChEMBL document CHEMBL1140294.
